All values here come from paper PMC7819943.

- STUDY_TARGET: OsSMF1 (Oryza sativa, UniProt Q6ZLB0 1-436)
- Sequence: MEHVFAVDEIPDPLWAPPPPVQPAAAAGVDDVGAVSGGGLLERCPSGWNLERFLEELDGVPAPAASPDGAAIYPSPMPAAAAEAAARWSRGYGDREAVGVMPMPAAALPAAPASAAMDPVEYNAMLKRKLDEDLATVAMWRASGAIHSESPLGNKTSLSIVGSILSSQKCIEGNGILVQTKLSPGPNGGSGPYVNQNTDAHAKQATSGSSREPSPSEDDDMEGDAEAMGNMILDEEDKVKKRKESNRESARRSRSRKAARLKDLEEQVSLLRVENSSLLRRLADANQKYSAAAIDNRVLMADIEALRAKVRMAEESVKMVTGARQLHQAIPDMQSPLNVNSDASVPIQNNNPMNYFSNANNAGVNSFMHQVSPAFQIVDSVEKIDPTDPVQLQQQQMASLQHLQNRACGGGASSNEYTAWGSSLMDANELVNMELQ
- RUN_DESCRIPTION: protein-binding microarray (RPBM); PBS, 2% BSA, 51.3 ng/ul salmon testes DNA, 50 uM zinc acetate, 200 nM TF, 25 C, 1 h; high values mean tight binding
- SETTINGS: protein: recombinant; tags: N-terminal polyhistidine and DsRed monomer fusion (pET32a); chain copies: 2; label: CyDye5-dUTP incorporated in the synthesized complementary strand; 3' TTTTT single-stranded linker to array surface; dsDNA, one strand shown
Whole data set: some 39,000 sequences, median “fluorescence intensity (a.u.)” near 4,300, cut for the highest 2% near 39,000. Many of the other results were omitted from the sample, so the highest values are more common in it than they were.
MEASUREMENT_KIND: binding signal

[[record]]
sequence_chain = "CTAAATCCTCGGGTCCACATGTCATACTCAGCCTCTTTACCGGAGTCACCTAGTGCAG"
reading = "5460 fluorescence intensity (a.u.)"

[[record]]
sequence_chain = "ACCTAAACGAGCCAACACGCACGCTCATCGCATCTTTGCGCGGAGTCACCTAGTGCAG"
reading = "3810 fluorescence intensity (a.u.)"

[[record]]
sequence_chain = "TAATAAGAGGCTGTAAGTCGGCTAAATGCTGAGGTGGAGGCGGAGTCACCTAGTGCAG"
reading = "8660 fluorescence intensity (a.u.)"

[[record]]
sequence_chain = "AATAAGTAGTTGGTGATACGTGTTAGCCACGAGGCATATACGGAGTCACCTAGTGCAG"
reading = "4020 fluorescence intensity (a.u.)"

[[record]]
sequence_chain = "CCATCGCCGCCGCCCTCTTCTTCTTCTTCTTGCGAAGCAACGGAGTCACCTAGTGCAG"
reading = "19100 fluorescence intensity (a.u.)"

[[record]]
sequence_chain = "ATTGAAAATTCTCTACTCTTTACACGTGTCCATCATCCCACGGAGTCACCTAGTGCAG"
reading = "19100 fluorescence intensity (a.u.)"

[[record]]
sequence_chain = "ACTCCTCGGATAGGCGATGGCGGCCGCGGTCACCGCGCCACGGAGTCACCTAGTGCAG"
reading = "3370 fluorescence intensity (a.u.)"

[[record]]
sequence_chain = "TCGCTCGCTCGCCTGCCAAATCTGCATTGGTGCTAGGAGGCGGAGTCACCTAGTGCAG"
reading = "3730 fluorescence intensity (a.u.)"

[[record]]
sequence_chain = "GGATCGAAACTTGTGTTAAACACGTCAACTTCATGCATCTCGGAGTCACCTAGTGCAG"
reading = "3310 fluorescence intensity (a.u.)"

[[record]]
sequence_chain = "AAAGGCCACGCCTTTGCCTCGTCAGTTATCTCTTCGTTTCCGGAGTCACCTAGTGCAG"
reading = "5220 fluorescence intensity (a.u.)"

[[record]]
sequence_chain = "GGGTCATTTGTCCCTTTCTGGAATGAAGTGCTTTGTAAAACGGAGTCACCTAGTGCAG"
reading = "33100 fluorescence intensity (a.u.)"

[[record]]
sequence_chain = "CAACACGCTCGATATCATCTAGTTAAACTAACCTAGTGTGCGGAGTCACCTAGTGCAG"
reading = "42700 fluorescence intensity (a.u.)"

[[record]]
sequence_chain = "TGTTTGTAAAGTAGAGCGTGCATGTGTGCGTTCTTAAGGTCGGAGTCACCTAGTGCAG"
reading = "3590 fluorescence intensity (a.u.)"

[[record]]
sequence_chain = "AAAATATATTACTACCTCCGTTTCATATTATAAGACTTTCCGGAGTCACCTAGTGCAG"
reading = "65400 fluorescence intensity (a.u.)"

[[record]]
sequence_chain = "CGTCGATTAATTTCCCTGGTAAATACGAAATGTTCATGGTCGGAGTCACCTAGTGCAG"
reading = "39600 fluorescence intensity (a.u.)"

[[record]]
sequence_chain = "ATTAATAGCAGTGACGTCTTGCACATACTGTATGAGTCATCGGAGTCACCTAGTGCAG"
reading = "11000 fluorescence intensity (a.u.)"

[[record]]
sequence_chain = "ATGGTGGTTGTGTCTTATATTTTGGAATGGAGGGACTTATCGGAGTCACCTAGTGCAG"
reading = "21300 fluorescence intensity (a.u.)"

[[record]]
sequence_chain = "GGCATAATAGGCCAGCCGTGTAGGCAGAGACACCAGTCGGCGGAGTCACCTAGTGCAG"
reading = "4530 fluorescence intensity (a.u.)"

[[record]]
sequence_chain = "CATTTTGTACTTTGACAAGTATTTAATATTTGCCAGTAGTCGGAGTCACCTAGTGCAG"
reading = "65100 fluorescence intensity (a.u.)"

